These entries and their values trace back to patent US12686668B2.

Listing of recorded pIC50 by entry.
- Tested on: LTB4 production in porcine or human whole blood
- Run Description: Whole blood HPLC assay, inhibition of LTB4 production
- Assay type: cell-based
- Study Conditions: 5 point curve, porcine or human whole blood (not specified)
pIC50: −log10 of the molar value.

Some compounds with known pIC50 results, for comparison:
Compound | Assay Value
COc1cc(C(C)(O)C(F)(F)F)ccc1OCc1ccc2ccccc2n1 (stereo not drawn) | < 5.00
CCC(O)(CCc1ccc(Oc2nc3ccccc3s2)c(OC)c1)C(F)(F)F (stereo not drawn) | 5.00 to 6.00
CCC(O)(CCc1ccc(Oc2nc3ccccc3s2)c(OC(C)C)c1)C(F)(F)F (stereo not drawn) | < 5.00
COc1cc(C(O)C(F)(F)F)ccc1Oc1nc2c(SC)cccc2s1 (stereo not drawn) | 5.00 to 6.00
CCC(O)(CCc1ccc(Oc2nc3c(SC)cccc3s2)c(OC)c1)C(F)(F)F (stereo not drawn) | 6.00 to 7.00

Could you now look at the following compound, please?
Incoming: Tell me reported pIC50 for CC(O)CCc1ccc(Oc2nc3ccccc3s2)cc1 (stereo not drawn) , tested with LTB4 production in porcine or human whole blood.
Outgoing: 5.00 to 6.00
